Data provenance is ChEMBL document CHEMBL3433997.

Kindly state inhibition for each of the entries shown.
testTarget: Hexose transporter 1 (Plasmodium falciparum)
experimentDescription: ST_JUDE_LEISH: Cytotoxicity at 2uM final concentration against transgenic Leishmania Mexicana promastigotes LmPfHT that are glucose transport deficient and complemented with the Plasmodium falciparum hexose transporter. Activity is measured by DNA content using SYBR green in vitro
Format: functional
Answers are plain numbers, in %.

Previously resolved entries follow.
| compound | measureName | valueUnit | measured |
| --- | --- | --- | --- |
| CCCCSc1nc2c(c(=O)n1Cc1ccco1)C1(CCCCC1)Cc1ccccc1-2 | inhibition | % | 1.36 |
| CCN(CCCN1CCCCC1)c1cc(C)nc(Nc2ccc(C)c(Br)c2)n1 | inhibition | % | 6.82 |
| O=S(=O)(c1ccc(OCc2ccc(Cl)cc2)cc1)c1cc2c(cc1O)CCN(C1CCC1)CC2 | inhibition | % | 1.15 |

Would you be so kind as to report inhibition for each listed record?
1. O=C(Nc1cc(Cl)cc(Cl)c1)Nc1ccnc2ccccc12
2. N#Cc1cc(C(=O)c2cc(Br)ccc2O)cn(-c2cc(Cl)cc(Cl)c2)c1=O
3. COc1ccc(NC(=O)N2CCCN(CCCCCNC(=O)/C=C/c3ccc(C(F)(F)F)cc3)CC2)cc1Cl
4. CCCCNC(=O)[C@H](Cc1ccccc1)NC(=O)c1ccc(O)c(-c2ccc(Cl)c(Cl)c2)c1
5. CC(C)(C)c1cc([N+](=O)[O-])cc(C(=O)Nc2ccccc2C(F)(F)F)c1O
6. CCCc1cccc(OC)c1OCCCON1C(N)=NC(N)=NC1(C)C

[2.02, 0.39, -1.14, 2.06, -0.82, -0.29]

---

Kindly state inhibition for each of the entries shown.
testTarget: Glucose transporter (Leishmania mexicana)
experimentDescription: ST_JUDE_LEISH: Cytotoxicity at 2uM final concentration against transgenic Leishmania Mexicana promastigotes LmGT2 that are glucose transport deficient and complemented with the L. Mexicana glucose transporter 2. Activity is measured by DNA content using SYBR green in vitro
Type: functional
# do not omit the unit; it follows the number

Previously resolved entries follow.
| compound | inhibition |
| --- | --- |
| Cc1cc(C)n(Cc2ccc(C(=O)NCC3CCCCC3)cc2)n1 | 2.61% |
| Cc1cccc2nc(-c3ccc(-c4cccc(CNCCN(C)C)c4)cc3)[nH]c12 | 0.95% |
| CN1CCC(NC(=O)c2cccc(Nc3cc(Nc4cccc(Br)c4)ncn3)c2)CC1 | 2.65% |
| CN(C)CCCOc1c(C(C)(C)C)cc(-c2cc(C(C)(C)C)c(OCCCN(C)C)c(C(C)(C)C)c2)cc1C(C)(C)C | 3.12% |
| O=C(Nc1cccc(-c2nc3ccccc3[nH]2)c1)c1cccc(NC(=O)c2ccco2)c1 | 0.63% |

Would you be so kind as to report inhibition for each listed record?
1. Cn1cnc(CCNC(=O)c2ccc(-c3ccc(-c4nc5cc(C(F)(F)F)ccc5[nH]4)s3)cc2)c1
2. COc1cc(Nc2ccnc3cc(-c4ccncc4)ccc23)cc(OC)c1OC
3. O=C(Nc1ccc(-c2ccc(-c3nc4cc(C(F)(F)F)ccc4[nH]3)s2)cc1)c1c[nH]cn1
4. CC1CN(c2cnn(C/C=C/c3ccc(NC(=O)c4ccc([N+](=O)[O-])cc4)cc3)c(=O)c2Cl)CC(C)N1 (stereo not drawn)
5. Clc1ccc(OCCC2CCN(CCCCCCCN3CCC(CCOc4ccc(Cl)c(Cl)c4)CC3)CC2)cc1Cl

1: 3.14%; 2: 9.21%; 3: 8.27%; 4: 0.18%; 5: 3.47%

Would you be so kind as to report inhibition for each listed record?
1. COCCNCc1ccc(-c2ccc(CNc3ccc4ncccc4c3)cc2)cc1
2. Cc1ccc(Nc2nc(C)cc(Nc3cccc(C#N)c3)n2)cc1
3. O=C(NCCCCCN1CCC(c2c[nH]c3ccccc23)CC1)Nc1ccc(Cl)c(Cl)c1
4. CCN1CCC(N(Cc2ccc(-c3ccc(C(F)(F)F)cc3)cc2)C(=O)Cn2c(CCc3cccc(F)c3F)cc(=O)c3ccc(OCc4ccccc4)cc32)CC1
5. CCCOc1cc(NC(=O)Nc2ccnc3ccccc23)cc(OCCC)c1
6. Cc1ccc2sc(N3CCN(C(=O)c4ccc([N+](=O)[O-])o4)CC3)nc2c1C

["1.36%", "16.3%", "1.89%", "3.52%", "3.42%", "13.7%"]

Would you be so kind as to report inhibition for each listed record?
1. COc1ccc2nccc([C@@H](O)CN3CCC(NC(=O)/C=C/c4ccc5cc(C)[nH]c5c4)CC3)c2c1
2. COc1ccc(NC(=O)[C@H](CC(C)C)Nc2cc(C)nc(NCc3ccccc3C)n2)cc1
3. Cc1cc(OCC2CCCO2)c2cc(NC(=O)C(=O)Nc3ccc4nc(C)cc(OCC5CCCO5)c4c3)ccc2n1 (stereo not drawn)
4. O=C(N/N=C/c1nc2ccccc2[nH]1)c1cccc([N+](=O)[O-])c1
5. CN1CCCC1CCOc1ccc2c(c1)N(C(=O)Nc1cc(Br)cc(C(F)(F)F)c1)CC2 (stereo not drawn)
6. O=c1cc(NCCCNCc2cc(C(F)(F)F)ccc2Cl)[nH]c2ccccc12

1: 1.91%; 2: 0.33%; 3: 3.37%; 4: 0.25%; 5: -2.02%; 6: -1.57%

For the compound shown here, CCNc1cc(C(=O)N[C@@H](Cc2ccccc2)[C@H](O)CNC(CC)c2cccc(Cl)c2)cc(N2CCCC2=O)c1 (stereo partly drawn) , give the reported inhibition.
3.68%
